Hello, the source for this data is patent US20120039802A1, in case you need it.

- SYSTEM TESTED: T1, cMet-Fc fusion protein (extracellular domain of the cMet receptor expressed as an Fc-fusion protein) (human, UniProt P08581 25-932)
- T1 construct: extracellular domain; also called soluble cMet-Fc-fusion protein; soluble cMet receptor; not shown: Fc part
- T1 sequence (P08581 25-932): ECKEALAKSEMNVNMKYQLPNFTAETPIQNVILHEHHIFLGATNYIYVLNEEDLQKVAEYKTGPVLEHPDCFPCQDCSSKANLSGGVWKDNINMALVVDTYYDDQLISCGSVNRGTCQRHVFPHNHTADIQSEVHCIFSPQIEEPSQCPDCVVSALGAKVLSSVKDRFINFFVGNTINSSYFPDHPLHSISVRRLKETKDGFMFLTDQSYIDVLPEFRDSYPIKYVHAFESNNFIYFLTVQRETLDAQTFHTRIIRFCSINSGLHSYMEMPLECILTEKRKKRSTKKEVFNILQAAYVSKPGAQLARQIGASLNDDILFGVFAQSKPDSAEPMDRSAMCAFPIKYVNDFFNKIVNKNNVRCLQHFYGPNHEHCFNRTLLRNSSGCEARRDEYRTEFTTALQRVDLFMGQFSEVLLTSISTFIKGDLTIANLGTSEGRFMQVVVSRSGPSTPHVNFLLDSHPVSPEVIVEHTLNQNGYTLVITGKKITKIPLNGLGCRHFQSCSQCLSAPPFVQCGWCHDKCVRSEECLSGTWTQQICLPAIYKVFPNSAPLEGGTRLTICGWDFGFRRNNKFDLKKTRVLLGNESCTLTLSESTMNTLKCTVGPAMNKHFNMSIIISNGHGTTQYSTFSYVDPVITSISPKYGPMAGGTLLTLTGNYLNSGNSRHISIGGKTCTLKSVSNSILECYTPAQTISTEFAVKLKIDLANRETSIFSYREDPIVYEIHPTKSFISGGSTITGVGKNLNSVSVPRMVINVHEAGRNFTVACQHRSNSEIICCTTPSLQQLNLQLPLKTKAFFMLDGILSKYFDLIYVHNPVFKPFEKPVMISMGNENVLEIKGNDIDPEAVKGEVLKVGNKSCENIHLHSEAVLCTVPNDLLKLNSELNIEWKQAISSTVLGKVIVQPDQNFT
- MEASUREMENT DESCRIPTION: phage ELISA on cMet-Fc, competitor HGF 100 ng/mL
MEASUREMENT KIND: % of binding in the absence of HGF (%)
Answers are plain numbers, in %.

Below: 3 binders and their reported % of binding in the absence of HGF.
BINDER	UNIT DESCRIPTOR	% of binding in the absence of HGF
GDSYNCSWDSKTFEVTCLYADP [546-B01 peptide-displaying phage (SEQ ID NO: 393)]	%	95
AGWTHCIGPPTFECIPMGT [334-G06 peptide-displaying phage (SEQ ID NO: 052)]	%	56
AQKTWFLEADLFQMFQEVTWQF [103-C04 peptide-displaying phage (SEQ ID NO: 490)]	%	73

Give me % of binding in the absence of HGF for each of these binders, listed below.
1. AGDIVCTGHPYFECWSWGT [333-C05 peptide-displaying phage (SEQ ID NO: 068)]
2. AQVGTAEAIMFSDVEDTGVHKF [103-G08 peptide-displaying phage (SEQ ID NO: 459)]
3. AGSIQCVGPPSFECTPYGT [335-D11 peptide-displaying phage (SEQ ID NO: 074)]

[83, 140, 56]

Tell me the measured % of binding in the absence of HGF of AGYYHCIDDFPQCKWMGT [482-D02 peptide-displaying phage (SEQ ID NO: 017)] , please. 66
